molecular target: human DGKα (Homo sapiens (Human), UniProt P23743); assay: DGKα LIPGLO assay (extruded liposome substrate, ADP-Glo luminescence); format: biochemical; details: liposome assay; read-out: DGK alpha LIPGLO IC50
Sequence (P23743 whole entry, looked up): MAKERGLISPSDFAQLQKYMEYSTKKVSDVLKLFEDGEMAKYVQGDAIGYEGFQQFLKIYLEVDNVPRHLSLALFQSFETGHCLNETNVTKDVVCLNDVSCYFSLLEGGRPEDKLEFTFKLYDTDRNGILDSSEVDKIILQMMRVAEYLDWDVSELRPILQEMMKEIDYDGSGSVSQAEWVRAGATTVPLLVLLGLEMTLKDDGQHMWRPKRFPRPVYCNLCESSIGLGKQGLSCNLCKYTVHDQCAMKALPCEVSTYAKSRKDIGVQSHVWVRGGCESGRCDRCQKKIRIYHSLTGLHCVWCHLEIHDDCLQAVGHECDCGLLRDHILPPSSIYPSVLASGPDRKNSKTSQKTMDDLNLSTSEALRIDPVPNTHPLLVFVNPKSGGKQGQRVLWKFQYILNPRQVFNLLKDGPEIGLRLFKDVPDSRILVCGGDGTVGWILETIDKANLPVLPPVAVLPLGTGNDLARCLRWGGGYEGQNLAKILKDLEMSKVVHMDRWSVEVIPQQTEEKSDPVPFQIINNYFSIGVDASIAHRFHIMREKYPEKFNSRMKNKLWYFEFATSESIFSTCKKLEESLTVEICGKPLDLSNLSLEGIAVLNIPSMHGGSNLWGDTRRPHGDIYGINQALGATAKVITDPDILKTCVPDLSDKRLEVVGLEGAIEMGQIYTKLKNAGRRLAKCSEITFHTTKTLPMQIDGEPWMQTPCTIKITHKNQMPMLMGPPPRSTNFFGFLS
Readout Type: IC50 (nM)
Give the value in nM but do not write nM after it.

Examples with their reported IC50 follow.
# Molecule, Readout Type, Measure Unit, Reported Measurement
data = [
    ("CC[C@@H]1CN(c2nc(=O)n(C)c3ccc(C#N)nc23)[C@@H](C)CN1C(C)c1ccc(C#N)cc1 (single isomer, unassigned) [Example 61]", "IC50", "nM", 52),
    ("CCC(c1ccc(OC(F)(F)F)cc1)N1C[C@H](C)N(c2nc(=O)n(C)c3ccc(C#N)nc23)C[C@H]1C (single isomer, unassigned) [Example 154]", "IC50", "nM", 16),
    ("CC[C@H]1CN(C(c2ccc(F)cc2)c2ccon2)[C@H](CC)CN1c1nc(=O)n(C)c2ccc(C#N)nc12 (single isomer, unassigned) [Example 35]", "IC50", "nM", 30),
    ("CC[C@H]1CN(C(c2ccc(F)cc2)c2ccc(C(F)(F)F)cn2)[C@H](C)CN1c1nc(=O)n(C)c2ccc(C#N)nc12 (some centres unmarked) [Example 114]", "IC50", "nM", 160),
    ("CC[C@@H]1CN(c2nc(=O)n(C)c3ccc(C#N)nc23)[C@@H](C)CN1C(c1ccc(F)cc1)c1nc(C2CC2)cs1 (single isomer, unassigned) [Example 51]", "IC50", "nM", 37),
]

Report measured IC50; entry is CC[C@H]1CN(C(C)c2ccc(OC(F)(F)F)cc2)[C@H](CC)CN1c1nc(=O)n(C)c2ccc(C#N)nc12 (single isomer, unassigned) [Example 9]
7

Provide measured IC50 value, entry: CC(c1ccc(Cl)cc1F)N1C[C@H](C)N(c2nc(=O)n(C)c3ccc(C#N)nc23)C[C@H]1C (single isomer, unassigned) [Example 146]
47

Fill in reported IC50 for this entry: CC[C@H]1CN(C(C)c2ccc(C(C)(C)C#N)cc2)[C@H](CC)CN1c1nc(=O)n(C)c2ccc(C#N)nc12 (some centres unmarked) [Example 197]
1470

Retrieve IC50 measured for CCC(c1ccc(OC(F)(F)F)cc1)N1C[C@H](C)N(c2nc(=O)n(C)c3ccc(C#N)nc23)C[C@H]1CC (single isomer, unassigned) [Example 83] and print it.
97

Assign IC50 to the following record: CC(c1ccc(C2CC2)cc1)N1C[C@H](C)N(c2nc(=O)n(C)c3ccc(C#N)nc23)C[C@H]1C (single isomer, unassigned) [Example 4]
1330

Give a short answer stating reported IC50 for CC[C@H]1CN(C(C)c2ccc(C(F)(F)F)nc2)[C@H](CC)CN1c1nc(=O)n(C)c2ccc(C#N)nc12 (single isomer, unassigned) [Example 45] .
310
